tested on: Centaurea diffusa; assay: Phytotoxicity in Centaurea diffusa assessed as inhibition of shoot differentiation at 250 ug/mL measured on day 14 relative to untreated control; assay type: functional, organism-based
Activity calls are given as the source filed them. The calls are words filed in the database; no cut-off is given here.
Your reply should match one of these outcome classes. active, inactive

Reference set (3 entries):
>>> df
                                   molecule  answer_label
0  Oc1cc(O)c2c(c1)O[C@H](c1ccc(O)c(O)c1)[C@H](O)C2 [(-)-EPICATECHIN]      inactive
1  O=c1c(O)c(-c2ccc(O)c(O)c2)oc2cc(O)cc(O)c12      inactive
2  O=C1C[C@@H](c2ccc(O)cc2)Oc2cc(O)cc(O)c21      inactive

Please indicate how the test categorized Oc1cc(O)c2c(c1)O[C@@H](c1ccc(O)c(O)c1)[C@@H](O)C2 [(+)-EPICATECHIN] .
active
